Target: T1, 14-3-3η, full length, N-terminally His6-tagged (human, UniProt Q04917 1-246)
T1 chain: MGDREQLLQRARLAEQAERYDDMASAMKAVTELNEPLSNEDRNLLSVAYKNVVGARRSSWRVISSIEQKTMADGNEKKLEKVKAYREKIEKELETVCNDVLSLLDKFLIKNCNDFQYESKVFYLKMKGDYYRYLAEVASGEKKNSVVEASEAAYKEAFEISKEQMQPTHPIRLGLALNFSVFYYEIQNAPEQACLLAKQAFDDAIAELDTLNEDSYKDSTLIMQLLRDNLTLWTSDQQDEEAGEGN
Assay: ITC; replicate B
Where no end group is shown, it is not given here. [ ]: non-standard residue; d: D form. pS = N[C@@H](COP(=O)(O)O)C(=O)O
PARAMETER: pKd
One number for each entry, as −log10 of the molar value.

Exercise: Name the reported pKd value associated with the binder NKNAN[pS]SPV [peptide 1, APN 38–46 pSer43, as used in ITC]
Solution: 5.70
